- ASSAY PROTOCOL: Acute toxicity, intraperitoneal (LD50, deaths)
- Assay type: in vivo
- EXPERIMENTAL CONDITIONS: mouse, in vivo, ip; intraperitoneal, dd strain mice, males and females
READOUT NAME: LD50

Query string: Using the record for COc1ccc(C2NC(=O)c3ccccc3S2)cc1O (stereo not shown) [Compound of this invention] , state its measured LD50.
Result string: > 5000 mg/kg

Values from patent US4075336A
